B1: Protein piccolo, residues 1058 to 1114; numbered along this chain, Q9Y6V0 (parent)
chain: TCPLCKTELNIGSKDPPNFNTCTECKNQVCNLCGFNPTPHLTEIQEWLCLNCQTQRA

Variants of: B1
assay.text: abundance fitness (aPCA) (normalised: wild type 0, dead -1); higher = more abundant; growth selection in yeast, the domain comes from the species named
test.settings: Homo sapiens
abundance fitness values, listed per item
Number only, no unit.

mutation=K14C test_value=-0.643

Which abundance fitness reading was recorded for the variant I44P ? 0.126

And what about the variant F19N ? 0.04

And what about the variant P39K ? 0.193

And what about the variant C33K ? -0.822

And what about the variant L41H ? -0.247
